experimental.protocol: refractive index (Na D-line) (dimensionless)
condition.summary: 298.15 K; 101.33 kPa; Liquid; Standard Abbe refractometry

compound: CCCCCCC
refractive index: 1.38515
--
compound: CCCCCCCCC
refractive index: 1.40326
--
compound: CCOS(=O)(=O)[O-].CCn1cc[n+](C)c1 [1-ethyl-3-methylimidazolium ethyl sulfate]
refractive index: 1.4791
--
compound: Cc1ccccc1
refractive index: 1.49399
--
compound: CCCCCC
refractive index: 1.37234
--
compound: CCCCCCCC
refractive index: 1.39519

###

Examples of compounds with documented mass density follow.
condition.summary: 298.15 K; 101.33 kPa; Liquid; Vibrating tube method

compound: CCCCCCC
mass density [kg/m3]: 679.56
//
compound: CCCCCCCCC
mass density [kg/m3]: 713.99
//
compound: Cc1ccccc1
mass density [kg/m3]: 862.17
//
compound: CCCCCCCC
mass density [kg/m3]: 698.6
//
compound: CCOS(=O)(=O)[O-].CCn1cc[n+](C)c1 [1-ethyl-3-methylimidazolium ethyl sulfate]
mass density [kg/m3]: 1237.23
//
compound: CCCCCC
mass density [kg/m3]: 655.19
